Where do the numbers come from? From paper PMC9127587.

This listing pairs binders with measured koff.
- EXPERIMENTAL SYSTEM: CFH18-20 (human complement factor H CCP18-20) with myc tag and His-tag (human) (UniProt P08603)
- Sequence (P08603 1046-1231): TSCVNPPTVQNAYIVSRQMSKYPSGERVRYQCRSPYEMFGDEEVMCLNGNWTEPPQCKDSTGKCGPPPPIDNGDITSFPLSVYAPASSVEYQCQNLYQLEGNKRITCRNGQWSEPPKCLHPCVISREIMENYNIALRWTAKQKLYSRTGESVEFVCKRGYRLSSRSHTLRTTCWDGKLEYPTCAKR
- ASSAY: SPR; CFH18-20 (or W1183A) immobilised on a CM5 chip by amine coupling at around 300 RU; VHH4 or its mutants injected as analyte at 30 uL/min; single-cycle kinetics; PBS pH 7.4, Tween 20 (0.005%), 25 °C; Biacore 8K
Respond with the bare value in s⁻¹.

Solved entries:
binder="VHH4 (VHH, alpaca VHH selected by phage display; CDR3 is Ala99-Tyr122; Disulfide bond between Cys50 and Cys106; also called VHH4 WT; WT; source: E. coli BL21 (DE3), purified (Ni-NTA, SEC)) VHH: QVQLVESGGGLVQAGGSLRLSCAASGLTVDDYAIGWFRQAPGKEREGVSCISSSNGSTYYADSVKGRFTISSDNAKNTAYLQMNSLKPEDTAVYYCAAAVSPNLECGTGPFGIYASYYGMDYWGQGTQVTVSS" property_label=koff unit_spec=s⁻¹ meas_value=5.53e-08
binder="VHH4 W123A (VHH) VHH: QVQLVESGGGLVQAGGSLRLSCAASGLTVDDYAIGWFRQAPGKEREGVSCISSSNGSTYYADSVKGRFTISSDNAKNTAYLQMNSLKPEDTAVYYCAAAVSPNLECGTGPFGIYASYYGMDYAGQGTQVTVSS" property_label=koff unit_spec=s⁻¹ meas_value=0.000159
binder="VHH4 T108A (VHH) VHH: QVQLVESGGGLVQAGGSLRLSCAASGLTVDDYAIGWFRQAPGKEREGVSCISSSNGSTYYADSVKGRFTISSDNAKNTAYLQMNSLKPEDTAVYYCAAAVSPNLECGAGPFGIYASYYGMDYWGQGTQVTVSS" property_label=koff unit_spec=s⁻¹ meas_value=2.57e-06

Next binder, please.
QUERY: Give koff for VHH4 P110A (VHH) VHH: QVQLVESGGGLVQAGGSLRLSCAASGLTVDDYAIGWFRQAPGKEREGVSCISSSNGSTYYADSVKGRFTISSDNAKNTAYLQMNSLKPEDTAVYYCAAAVSPNLECGTGAFGIYASYYGMDYWGQGTQVTVSS
RESULT: 7.11e-06
